System: Pseudomonas aeruginosa
Experiment: Antibacterial activity against Pseudomonas aeruginosa PA262 assessed as inhibition of visible bacterial growth by CLSI based broth-microdilution method
Assay type: functional
measurement.name: MIC (µg/mL)
Entry rule: numbers only, all in µg/mL.

## Input Give reported MIC value for CN(C)c1ccc(O)c2c1C[C@H]1C[C@H]3[C@H](N(C)C)C(O)=C(C(N)=O)C(=O)[C@@]3(O)C(O)=C1C2=O
## Output 256

----------
Test system: HEK293
Experiment: Cytotoxicity against HEK293 cells assessed as reduction in cell viability at 7 uM
Assay type: toxicity, cell-based
Details: human, hek293, 7 µM
measurement.name: Activity

>  <molecule.smiles>
Cl.Cl.Cl.Cl.Cl.Cl.NC[C@H]1O[C@H](O[C@H]2[C@H](OCCCCCCCCCCCCNC(=O)c3cn(C4CC4)c4cc(N5CCNCC5)c(F)cc4c3=O)[C@@H](O[C@H]3O[C@H](CO)[C@@H](O)[C@H](N)[C@H]3O)[C@H](N)C[C@@H]2N)[C@H](N)C[C@@H]1O

>  <measurement.name>
Activity

>  <recorded.result>
Non-toxic

$$$$
>  <molecule.smiles>
Cl.Cl.Cl.Cl.Cl.Cl.NC[C@H]1O[C@H](O[C@H]2[C@H](OCCOCCOCCOCCNC(=O)c3cn(C4CC4)c4cc(N5CCNCC5)c(F)cc4c3=O)[C@@H](O[C@H]3O[C@H](CO)[C@@H](O)[C@H](N)[C@H]3O)[C@H](N)C[C@@H]2N)[C@H](N)C[C@@H]1O

>  <measurement.name>
Activity

>  <recorded.result>
Non-toxic

$$$$
>  <molecule.smiles>
Cl.Cl.Cl.Cl.Cl.Cl.NC[C@H]1O[C@H](O[C@H]2[C@H](OCCCCCCCCNC(=O)c3cn(C4CC4)c4cc(N5CCNCC5)c(F)cc4c3=O)[C@@H](O[C@H]3O[C@H](CO)[C@@H](O)[C@H](N)[C@H]3O)[C@H](N)C[C@@H]2N)[C@H](N)C[C@@H]1O

>  <measurement.name>
Activity

>  <recorded.result>
Non-toxic

$$$$
>  <molecule.smiles>
Cl.Cl.Cl.Cl.Cl.Cl.NC[C@H]1O[C@H](O[C@H]2[C@H](OCc3ccc(-c4ccc(CNC(=O)c5cn(C6CC6)c6cc(N7CCNCC7)c(F)cc6c5=O)cc4)cc3)[C@@H](O[C@H]3O[C@H](CO)[C@@H](O)[C@H](N)[C@H]3O)[C@H](N)C[C@@H]2N)[C@H](N)C[C@@H]1O

>  <measurement.name>
Activity

>  <recorded.result>
Non-toxic

$$$$
